Data credit: patent US20230235027A1

target: Biotinylated SARS-CoV-2 S protein RBD with a C-terminal AviTag (SARS-CoV-2, UniProt P0DTC2 319-541)
value-kind: Kd
Show the value, then the unit it is measured in.

Q: Identify Kd associated with the binder NIH-CoVnb-103 (VHH, not shown: large carriers) VHH: DVQLQESGGGLVQPGGSLRLSCAASGLTLDYYTIGWFRQAPGKEREGVSCISSSDDSTYYADSVKGRFTISRDNAKNTVYLQMNSLKPEDTAVYYCATAPGTYYKGSYYPMCHYYGMDYWGKGTQVTVSS
Result: 9.43 nM

Q: Identify Kd associated with the binder NIH-CoVnb-109 (VHH, not shown: large carriers) VHH: DVQLQESGGGLVQSGGSLRLSCAASGFTLDYYAIGWFRQAPGKEREGVSCITNSDGSTYYADSVKGRFTTSRDNAKNTVYLQMNSLKPEDTAVYYCASFPSTYYSGSYYYTCHPGGMDYWGKGTQVTVSS
Result: 58.5 nM

Q: Identify Kd associated with the binder NIH-CoVnb-108 (VHH, not shown: large carriers) VHH: DVQLQESGGGLVQPGGSLRLSCAASGFTLDYYAIGWFRQAPGKEREGVSCISNSGGSTYYADSVKGRFTTSRDNAKNTVYLQMNSLKPEDTAVYYCAAVPSTYYSGSYYYTCHPGGMDYWGKGTQVTVSS
Result: 26.6 nM

Q: Identify Kd associated with the binder NIH-CoVnb-113 (VHH) VHH: DVQLQESGGGLVQPGGSLRLSCAASGLTLDYYAIGWFRQAPGKEREGVSCISSSDGSTYYADSVKGRFTTSRDNAKNTVYLQMNSLKPEDTAVYYCAAVPSTYYSGTYYYTCHPGGMDYWGKGTLVTVSS
Result: 8.19 nM
